Source listed as ChEMBL document CHEMBL4732187.

# STUDY TARGET: CDK2/Cyclin A2 (Homo sapiens, UniProt P24941)
# METHOD SUMMARY: Inhibition of human N-terminal GST-tagged CDK2 (1 to 298 residues)/Cyclin A (174 to 432 residues) expressed in Escherichia coli Turner (DE3) cells assessed as reduction in ADP formation using PKTPKKAKKL as substrate by resorufin dye based fluorescence assay
READOUT LABEL: IC50

# COMPOUND, IC50
measured = [
    ("Cc1nn(-c2ccncc2)c2c1C(=O)CC(C)(C)C2Br (stereo not given)", "10.5 µM"),
    ("Cc1nn(-c2ccncn2)c2c1C(=O)CC(C)(C)C2Br (stereo not given)", "1.5 µM"),
    ("Cc1nn(-c2ccc(Cl)cn2)c2c1C(=O)CC(C)(C)C2Br (stereo not given)", "3 µM"),
    ("CC1(C)CC(=O)c2cnn(-c3ccccn3)c2C1Br (stereo not given)", "160 µM"),
]

Now, please, on to the next compound.
For the compound shown here, Cc1nn(-c2ncccc2C(F)(F)F)c2c1C(=O)C(Br)C(C)(C)C2 (stereo not given) , give the reported IC50.
230 µM
